Here we list molecules with their recorded IC50 when tested on TDO (Homo sapiens, UniProt P48775).
Sequence (P48775 whole entry): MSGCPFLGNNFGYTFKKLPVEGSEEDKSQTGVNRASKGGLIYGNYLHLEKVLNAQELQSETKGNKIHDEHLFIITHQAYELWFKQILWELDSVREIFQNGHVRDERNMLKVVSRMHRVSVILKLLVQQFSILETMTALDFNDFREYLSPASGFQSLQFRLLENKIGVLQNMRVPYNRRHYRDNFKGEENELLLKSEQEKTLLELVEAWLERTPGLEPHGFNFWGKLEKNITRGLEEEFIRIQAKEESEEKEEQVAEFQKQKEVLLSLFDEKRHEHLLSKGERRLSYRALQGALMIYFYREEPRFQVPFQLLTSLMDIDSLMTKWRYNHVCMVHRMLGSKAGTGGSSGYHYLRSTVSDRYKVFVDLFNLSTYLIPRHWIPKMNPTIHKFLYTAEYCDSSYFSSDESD
The reply should contain only the number, in µM.

Please review the entries below; each comes with its answer.
Molecule	Display Unit	Number
O[C@H](c1c(C2CC2)ccc2cncn12)[C@H]1CC[C@H](c2ccnc3ccccc32)CC1 (single isomer, unassigned) [Example D140a]	µM	11
COCCOc1ccc([C@H]2CC[C@H]([C@H](O)c3c(C4CC4)ccn4cncc34)CC2)cc1 (single isomer, unassigned) [Example C103a]	µM	10
O[C@H](c1c(C2CC2)ccn2cncc12)[C@H]1CC[C@H](c2ccc(F)cc2)CC1 (single isomer, unassigned) [Example C107a]	µM	6.5

Req: # value lookup — system TDO (Homo sapiens, UniProt P48775), readout IC50, item Cn1cc(-c2ccc(N3CCC(C(O)c4c(C5CC5)ccn5cncc45)CC3)cc2)cn1 (stereo not drawn) [Example C152]
Resp: 3.3

Req: Notebook entry, TDO (Homo sapiens, UniProt P48775) assay: IC50 of O[C@H](c1c(C2CC2)ccn2cncc12)[C@H]1CC[C@H](c2ccc(OC3COC3)cc2)CC1 (single isomer, unassigned) [Example C117a] = ?
Resp: 3.4

Req: API: value(readout=IC50, system=TDO (Homo sapiens, UniProt P48775)) for record COc1cccc([C@H]2CC[C@H]([C@H](O)c3c(C4CC4)ccn4cncc34)CC2)c1 (single isomer, unassigned) [Example C114a]
Resp: 8.3

Req: Under TDO (Homo sapiens, UniProt P48775): IC50 value of N#Cc1ccc([C@H]2CC[C@H]([C@H](O)c3c(C4CC4)ccc4cncn34)CC2)cc1 (single isomer, unassigned) [Example D110a] ?
Resp: 6.4

====

Quick reference: pIC50 of the listed items.
Target: TDO (Homo sapiens)
Bear in mind: pIC50 is minus log10 of a mol/L concentration; give just that figure.

Req: I would be grateful if you could share the reported pIC50 for O[C@H](c1c(C2CC2)ccn2cncc12)[C@H]1CC[C@H](c2ccccc2C(F)(F)F)CC1 (single isomer, unassigned) [Example C116a] .
Resp: 5.20

====

Target: IDO1 (Homo sapiens)
Test: IDO1 enzymatic assay
Type: biochemical
Parameters: His tag (N); made in house; host or cells: E. coli
Conditions: read-out: Enzyme IC50 IDO1
// values below are reported pIC50
Value format note: pIC50 is -log10 of concentration (mol/L); just state the number.

Compound	Number
O=C(O)c1ccc(N2CCC(C(O)c3c(C4CC4)ccn4cncc34)CC2)cc1 (stereo not shown) [Example C145]	7.05
OC(c1c(C2CC2)ccn2cncc12)C1CCN(c2cccnc2)CC1 (stereo not shown) [Example C148]	7.13
OC(c1c(C2CC2)ccn2cncc12)C1CCC(c2ccc(OC(F)(F)F)cc2)CC1 (racemic) [Example C105]	6.68
OC(c1c(C2CC2)ccc2cncn12)C1CCC(c2ccnc3ccc(F)cc23)CC1 (stereo not shown) [Example D150]	7.44
O[C@@H](c1c(C2CC2)ccc2cncn12)[C@H]1CC[C@H](c2cccc(Cl)c2)CC1 (single isomer, unassigned) [Example D116b]	5.23
OC(c1c(C2CC2)ccc2cncn12)C1CCC(c2ccc(Cl)c(F)c2)CC1 (stereo not shown) [Example D128]	7.39

Continue with the next compound.
Req: I have this compound here, O[C@@H](c1c(C2CC2)ccc2cncn12)[C@H]1CC[C@H](c2ccc(-c3ccccc3)cc2)CC1 (single isomer, unassigned) [Example D119b] , and I need its recorded pIC50.
Resp: 5.66

====

Molecular target: IDO1 (Homo sapiens, UniProt P14902)
Sequence (P14902 whole entry): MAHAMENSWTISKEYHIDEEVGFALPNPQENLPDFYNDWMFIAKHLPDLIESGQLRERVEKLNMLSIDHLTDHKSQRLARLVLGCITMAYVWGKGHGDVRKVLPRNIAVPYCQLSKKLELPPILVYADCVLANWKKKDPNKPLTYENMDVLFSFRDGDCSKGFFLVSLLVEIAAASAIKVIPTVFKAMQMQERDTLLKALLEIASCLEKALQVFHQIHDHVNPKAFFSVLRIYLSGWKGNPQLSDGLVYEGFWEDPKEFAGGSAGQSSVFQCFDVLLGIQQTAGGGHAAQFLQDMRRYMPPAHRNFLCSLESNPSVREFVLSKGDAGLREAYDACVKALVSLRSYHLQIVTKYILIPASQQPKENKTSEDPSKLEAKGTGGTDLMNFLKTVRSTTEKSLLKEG
Assay: Hela cell-based IDO1 assay
Conditions: Hela cells
Listed compounds paired with reported log10(EC50)
A difference of one corresponds to tenfold EC50; all values are log10 with EC50 in nM.

Compound	log10(EC50)
COc1ccc(C2CCC(C(O)c3c(C4CC4)ccc4cncn34)CC2)cc1Cl (stereo not shown)	2.27

Req: Field request: log10(EC50) | item: O[C@H](c1c(C2CC2)ccc2cncn12)[C@H]1CC[C@H](c2ccc3ccccc3c2)CC1 (single isomer, unassigned) [Example D136a]
Resp: 2.40

====

Molecular target: cellular TDO2 in HEK293-TDO2 cells (Homo sapiens)
Assay: 293-TDO2 cell-based assay (Kyn colorimetric)
Settings: 48 hours of incubation
Measured EC50 of individual entries

Compound	EC50
OC(c1c(C2CC2)ccn2cncc12)C1CCC(c2ccnc3c(F)cccc23)CC1 (stereo not shown)	> 10 µM
CC(C)c1ccc2cncn2c1[C@H](O)[C@H]1CC[C@H](c2cccc(Cl)c2)CC1 (single isomer, unassigned) [Example D168b]	> 10 µM
O[C@H](c1c(C2CC2)ccc2cncn12)[C@H]1CC[C@H](c2cccc(F)c2)CC1 (single isomer, unassigned) [Example D156a]	> 10 µM
Oc1cccc(C2CCC(C(O)c3c(C4CC4)ccc4cncn34)CC2)c1 (stereo not shown)	> 10 µM
CC(=O)COc1ccc([C@H]2CC[C@H]([C@H](O)c3c(C4CC4)ccc4cncn34)CC2)cc1	> 10 µM
Oc1ccc([C@H]2CC[C@H](C(O)c3c(C4CC4)ccn4cncc34)CC2)cc1 (single isomer, unassigned) [Example C104a]	> 10 µM

Req: Any idea what EC50 was measured for CC(=O)c1ccc([C@H]2CC[C@H]([C@H](O)c3c(C4CC4)ccn4cncc34)CC2)cc1 ?
Resp: > 10 µM

====

Biological target: IDO1 (Homo sapiens, UniProt P14902)
Assay: IDO1 enzymatic assay
Type: biochemical
Design: His tag (N); made in house; host or cells: E. coli
Details: read-out: Enzyme IC50 IDO1
Assay Metric: pIC50
# log scale: pIC50 equals minus log10 of the concentration in mol/L

Sample answers from the record:
Molecule	pIC50
O[C@H](c1c(C2CC2)ccc2cncn12)[C@H]1CC[C@H](c2ccc3ncccc3c2)CC1 (single isomer, unassigned) [Example D157a]	7.82
OC(c1c(C2CC2)ccc2cncn12)C1CCC(c2ccc(Cl)cc2F)CC1 (centres unmarked)	7.33
OC(c1c(C2CC2)ccc2cncn12)C1CCC(c2cccc3ccccc23)CC1 (centres unmarked)	7.49
O[C@@H](c1c(C2CC2)ccc2cncn12)C1CCN(c2ccc(Cl)c3ncccc23)CC1 (single isomer, unassigned) [Example D178b]	5.64
N#Cc1ccc(N2CCC(C(O)c3c(C4CC4)ccn4cncc34)CC2)cc1 (single isomer, unassigned) [Example C144a]	7.72

Req: For the molecule shown here, O[C@H](c1c(C2CC2)ccc2cncn12)[C@H]1CC[C@H](c2ccc(F)c(F)c2)CC1 (single isomer, unassigned) [Example D126a] , give the reported pIC50.
Resp: 7.74

Req: For the molecule shown here, CC(C)c1ccc2cncn2c1[C@H](O)[C@H]1CC[C@H](c2ccc(Cl)cc2)CC1 (single isomer, unassigned) [Example D115b] , give the reported pIC50.
Resp: 5.37

====

Target: IDO1 (Homo sapiens, UniProt P14902)
Test: Hela cell-based IDO1 assay
Settings: Hela cells
Listing: pEC50 of selected compounds
# reply with the number alone; pEC50 is -log10 of concentration in mol/L

As a guide, the following entries are already answered.
Compound	pEC50
OC(c1c(C2CC2)ccn2cncc12)C1CCN(c2ccc(F)c(F)c2)CC1 (stereo not shown)	6.98
N#Cc1ccc([C@H]2CC[C@H](C(O)c3c(C4CC4)ccn4cncc34)CC2)cc1 (single isomer, unassigned) [Example C106a]	6.85

Now take the following compound into account.
Req: State the recorded pEC50 for this entry: COc1ccc([C@H]2CC[C@H](C(O)c3c(C4CC4)ccc4cncn34)CC2)c(F)c1 (single isomer, unassigned) [Example D146b]
Resp: 5.34

====

IC50 values, listed per item
Target: IDO1 (Homo sapiens, UniProt P14902)
Assay: IDO1 enzymatic assay
Format: biochemical
Design: His tag (N); made in house; host or cells: E. coli
Conditions: read-out: Enzyme IC50 IDO1
Quick reminder: number only, in nM, skip the unit.

Before answering, review these 5 worked examples.
Compound	Tested Target	Assay Metric	Number
O[C@@H](c1c(C2CC2)ccn2cncc12)[C@H]1CC[C@H](c2ccc(OC3CCCC3)cc2)CC1 (single isomer, unassigned) [Example C118b]	IDO1 (Homo sapiens, UniProt P14902)	IC50	3000
COc1ccc(N2CCC(C(O)c3c(C4CC4)ccn4cncc34)CC2)cc1 (stereo not drawn)	IDO1 (Homo sapiens, UniProt P14902)	IC50	32
O=C(O)c1ccc([C@H]2CC[C@H]([C@H](O)c3c(C4CC4)ccc4cncn34)CC2)cc1 (single isomer, unassigned) [Example D111a]	IDO1 (Homo sapiens, UniProt P14902)	IC50	17
O[C@@H](c1c(C2CC2)ccn2cncc12)[C@H]1CC[C@H](c2ccc(OC(F)(F)F)cc2)CC1 (single isomer, unassigned) [Example C105b]	IDO1 (Homo sapiens, UniProt P14902)	IC50	2000
O[C@H](c1c(C2CC2)ccc2cncn12)[C@H]1CC[C@H](c2ccc3ccccc3c2)CC1 (single isomer, unassigned) [Example D136a]	IDO1 (Homo sapiens, UniProt P14902)	IC50	21

Req: IC50 for O[C@@H](c1cc(Cl)cc2cncn12)[C@H]1CC[C@H](c2ccc(Cl)cc2)CC1 (single isomer, unassigned) [Example E101b] ?
Resp: 2800
